Assay: NCI Yeast Anticancer Drug Screen. Data for the cln2 rad14 strain (AID 165);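 also: 0% = growth equal to vehicle treated cultures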
Conditions: S. cerevisiae cln2 rad14 strain, at 50.0 µM
About 79,000 compounds went through this panel and 15% of them were active in at least one assay; those are over-represented in the sample as a whole. Activity calls are given as the source filed them. Rule as the data show it: active = growth inhibition above about 70%; inactive = the rest.
Outcome codes: active, inactive

- Molecule: "N#Cc1nnn2c1nc(N)c1c(Cl)cccc12"
  Group Label: "inactive"
- Molecule: "CCCCCCCCCCCCCCCCc1ccc(CCCC(=O)O)cc1"
  Group Label: "inactive"
- Molecule: "O=C(CI)Nc1ccc(Cl)c(Cl)c1"
  Group Label: "active"
- Molecule: "Nc1ccc(C(=O)CC(=O)c2cccc([N+](=O)[O-])c2)cc1"
  Group Label: "inactive"
- Molecule: "COc1cc2c(cc1OCc1ccccc1)C(c1cc(OC)c(OC)c(OC)c1)=C1C(=O)OCC1C2 (configuration not stated)"
  Group Label: "inactive"
- Molecule: "CC(=O)OC(C)c1cc2c(s1)C(=O)c1scc(C(C)OC(C)=O)c1C2=O (configuration not stated)"
  Group Label: "active"
- Molecule: "CC[N+](C)(CC)CCOC(=O)C(c1ccccc1)C(O)C1CC=CCC1 (configuration not stated)"
  Group Label: "inactive"
- Molecule: "[O-][N+](=Nc1ccccc1)c1ccccc1"
  Group Label: "inactive"
- Molecule: "CCc1c(NCCO)c(C(=O)NCCO)c2nc3ccccc3n2c1NCCO"
  Group Label: "inactive"
- Molecule: "CCC1(C)N=C(N)Nc2nc3ccccc3n21 (configuration not stated)"
  Group Label: "inactive"
- Molecule: "C[N+](C)(C)c1ccc2ccccc2n1"
  Group Label: "inactive"
- Molecule: "NC(N)=Nc1cccc2ccccc12"
  Group Label: "inactive"

====

Assay: NCI Yeast Anticancer Drug Screen. Data for the mlh1 rad18 strain (AID 175)
Conditions: S. cerevisiae mlh1 rad18 strain growth inhibition; at 50.0 µM
Protocol: Growth inhibition of yeast strains with defined genetic alterations is measured as a screen for potential anti-cancer activity. Selected strains with alterations in DNA damage repair or cell cycle control were exposed to compounds and growth inhibition was measured relative to vehicle treated controls. The strain used in this assay is mlh1 rad18
Compounds without any hit were thinned out: in the full panel of roughly 79,000, 15% have a hit. Activity calls are given as the source filed them. Rule as the data show it: active = growth inhibition above about 70%; inactive = the rest.
Outcome codes: active, inactive

- Compound: "Cc1ccccc1SC(c1ccccc1)(c1ccccc1)c1ccccc1"
  Group Label: "inactive"
- Compound: "COc1ccc2c(c1)c(CO)c(CO)c[n+]2[O-]"
  Group Label: "inactive"
- Compound: "Nc1c2ccccc2nc2c(C(=O)Nc3ccc(S(N)(=O)=O)cc3)cccc12"
  Group Label: "inactive"
- Compound: "CC(C)=NC(C(=O)O)C(C)(C)S (stereo unspecified)"
  Group Label: "inactive"
- Compound: "Cc1nnnn1-c1ccc([N+](=O)[O-])cc1"
  Group Label: "inactive"
- Compound: "C=C(C)[C@@H]1CC[C@@H]2C(=CC[C@]3(C)C([C@H](C)CC/C=C(/C)C(=O)O)CC[C@@]23C)[C@@]1(C)CCC(=O)O (stereo partly specified)"
  Group Label: "inactive"
- Compound: "CCCCCC(C)(C)O"
  Group Label: "inactive"
- Compound: "Clc1c(Cl)c(Cl)c(CSCc2c(Cl)c(Cl)c(Cl)c(Cl)c2Cl)c(Cl)c1Cl"
  Group Label: "inactive"
- Compound: "CN(CC(C)(C)C=O)C(=O)c1ccccc1"
  Group Label: "inactive"
- Compound: "CCN(CC)C1=CC(=O)OC1OC (stereo unspecified)"
  Group Label: "inactive"
- Compound: "CCCc1c(C(=O)O)c(-c2cccc3ccccc23)c(CCC)c2c1-c1cccc3cccc-2c13"
  Group Label: "active"

====

Test: NCI Yeast Anticancer Drug Screen. Data for the rad50 strain (AID 155);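 also: 0% = growth of vehicle-only cultures of the same strain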
Details: S. cerevisiae rad50 strain growth inhibition; at 50.0 µM; stronger effect = higher value
About 79,000 compounds went through this panel and 15% of them were active in at least one assay; those are over-represented in the sample as a whole.

- Compound: "Nc1ccc(C(=O)NO)c(O)c1"
  Result Units: "%"
  growth inhibition: 6.2
- Compound: "O=CC(=O)c1ccccc1O"
  Result Units: "%"
  growth inhibition: 30.1
- Compound: "CN(C)CC(Oc1ccccc1)C(=O)c1ccccc1 (stereo not given)"
  Result Units: "%"
  growth inhibition: -3.2
- Compound: "Cc1ccccc1N(C(=O)C(=O)O)c1ccccc1C"
  Result Units: "%"
  growth inhibition: 1.35
- Compound: "OC1c2ccccc2-c2ccccc21"
  Result Units: "%"
  growth inhibition: 35.6
- Compound: "Cc1ccc(C2(O)CC(c3ccc([N+](=O)[O-])o3)=NN2C(=O)COc2ccccc2Cl)cc1 (stereo not given)"
  Result Units: "%"
  growth inhibition: 46.1
- Compound: "NC(=S)N/N=C\\c1nccc2ccsc12"
  Result Units: "%"
  growth inhibition: 10.4
- Compound: "COCCCNC1=C(C#N)C(=O)NC(c2cccc([N+](=O)[O-])c2)S1 (stereo not given)"
  Result Units: "%"
  growth inhibition: -9.7
- Compound: "CCOC/N=C(/N)NC#N"
  Result Units: "%"
  growth inhibition: 25.6
- Compound: "CN(C)c1ccc(C=C2/C(=N\\O)c3ccccc3/C2=N/O)cc1"
  Result Units: "%"
  growth inhibition: -1.5
- Compound: "CC(C)([NH-])C[NH-].[Cl][Pt+2][Cl]"
  Result Units: "%"
  growth inhibition: -17.1
- Compound: "CSCCCN(CCCSC)CCCSC"
  Result Units: "%"
  growth inhibition: -12.6
- Compound: "c1ccc2c(c1)NC(C1OC3CCCN3C1C1Nc3ccccc3S1)S2 (stereo not given)"
  Result Units: "%"
  growth inhibition: -43.2
- Compound: "Cc1cc(O)c(C(C)C)cc1NC(=S)Nc1ccc(S(=O)(=O)c2ccc(NC(=S)Nc3cc(C(C)C)c(O)cc3C)cc2)cc1"
  Result Units: "%"
  growth inhibition: 7.55
- Compound: "CC1=NN2C(=O)C(c3ccccc3)SC2=NC(C)(C)C1 (stereo not given)"
  Result Units: "%"
  growth inhibition: 13.1
- Compound: "O=C(O)CC1CC2CC(=O)C1C2 (stereo not given)"
  Result Units: "%"
  growth inhibition: -28.1
- Compound: "Cc1ccccc1-n1c(C)nc2cc(NCC(=O)c3ccccc3)ccc2c1=O"
  Result Units: "%"
  growth inhibition: 32.9
- Compound: "Oc1ccccc1-c1cc(-c2ccccc2)nc(NCCCCCCNc2nc(-c3ccccc3)cc(-c3ccccc3O)n2)n1"
  Result Units: "%"
  growth inhibition: 9.85
- Compound: "CC1(C)C[C@@H]2C1CCC1(C)CC2(O)CC[C@H]1O (stereo not given in full)"
  Result Units: "%"
  growth inhibition: -23.6
- Compound: "C=C1C(=O)N2CCc3c([nH]c4ccccc34)[C@H]2C[C@@H]1CO"
  Result Units: "%"
  growth inhibition: 5.4
- Compound: "O=C1O/C(=C(/Cl)c2cccc3ccccc23)c2ccccc21"
  Result Units: "%"
  growth inhibition: -40.2
- Compound: "Cc1ccc(C)c2nc3c(C)ccc(C)c3cc12"
  Result Units: "%"
  growth inhibition: 22.5
- Compound: "Cc1oc2nc(N(C)C)nc(NN)c2c1C"
  Result Units: "%"
  growth inhibition: 10.1
- Compound: "CCO[Si](OCC)(OCC)c1ccccc1"
  Result Units: "%"
  growth inhibition: -28.7
- Compound: "CCCCOC(=O)/C(=C\\c1cccc(OC)c1)NC(=O)c1ccccc1"
  Result Units: "%"
  growth inhibition: 15.8

====

Assay: NCI Yeast Anticancer Drug Screen. Data for the rad50 strain (AID 155);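 also: 0% = growth of vehicle-only cultures of the same strain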
Conditions: S. cerevisiae rad50 strain growth inhibition; at 50.0 µM
The panel holds about 79,000 compounds, 15% with a hit somewhere; the sample as a whole holds those more often. Calls of active or inactive are those of the source. Rule as the data show it: active = growth inhibition above about 70%; inactive = the rest.
Outcome codes: label 1 for active, label 0 for inactive

- Molecule: "Cc1cc(N(CCC#N)CCC#N)ccc1/C=C\\C(=O)Nc1ccccc1"
  Group Label: "label 0"
- Molecule: "O=C(Nc1ccccc1)C1C2C=CC(CC2)C1C(=O)Nc1ccccc1 (stereo not given)"
  Group Label: "label 0"
- Molecule: "Cc1cc(N)ccc1C(=O)O"
  Group Label: "label 0"
- Molecule: "COc1ccc(C(=O)c2cccc(C(=O)c3ccc(OC)cc3)c2)cc1"
  Group Label: "label 0"
- Molecule: "Clc1ccc(-c2oc(-c3ccc(Cl)cc3)c3ccccc23)cc1"
  Group Label: "label 0"
- Molecule: "CCOC(=O)c1c(Br)c(-c2ccc([N+](=O)[O-])cc2)c(Br)n1C"
  Group Label: "label 0"
- Molecule: "NCCCCCCN"
  Group Label: "label 0"
- Molecule: "O=C1C(N=Nc2ccc(Br)cc2)Sc2nc3ccccc3n21 (stereo not given)"
  Group Label: "label 0"
- Molecule: "C1CCC2C(C1)CCCC2NC1=NCCO1 (stereo not given)"
  Group Label: "label 0"
- Molecule: "CCC(C#N)(c1ccccc1)N(CCc1ccccc1)C(=O)c1ccccc1 (stereo not given)"
  Group Label: "label 0"
- Molecule: "S=c1sc2c(Cl)ncnc2n1-c1ccccc1"
  Group Label: "label 0"
- Molecule: "Cc1ccc(NC(=O)NCCCN2CCOCC2)cc1NC(=O)NCCCN1CCOCC1"
  Group Label: "label 0"
- Molecule: "CC(/C=N/NC1=NCCCN1)=N\\NC1=NCCCN1"
  Group Label: "label 0"
- Molecule: "COC(=O)/C=C(\\C(=O)OC)c1cc(C)c2cc(C(C)C)ccc(C)c1-2"
  Group Label: "label 0"
- Molecule: "CC(=O)OCC1OC(n2nc(C#N)c(C#N)n2)C(OC(C)=O)C1OC(C)=O (stereo not given)"
  Group Label: "label 0"
- Molecule: "CN(C)N=Nc1ccc(C(=O)NC(Cc2ccccc2)C(=O)O)cc1 (stereo not given)"
  Group Label: "label 0"
- Molecule: "O=C(O)c1ccc([N+](=O)[O-])cc1C(=O)c1cccs1"
  Group Label: "label 0"
- Molecule: "Fc1ccc(C(=C(c2ccc(F)cc2)c2ccc(F)cc2)c2ccc(F)cc2)cc1"
  Group Label: "label 0"
- Molecule: "O=[N+]([O-])c1ccc2nc[nH]c2c1"
  Group Label: "label 0"
- Molecule: "CN(C)CCNC(=O)c1ccc(NC(=O)c2nc([N+](=O)[O-])cn2C)cc1"
  Group Label: "label 0"
- Molecule: "Cc1cc(C)c2c(ccc3ccccc32)n1"
  Group Label: "label 0"
- Molecule: "CCOC(=O)C1=C2c3ccc4cc(OC)ccc4c3CCC2(C)C(=O)C1 (stereo not given)"
  Group Label: "label 0"
- Molecule: "CC1=CCC(C#N)N(C)C1c1ccccc1 (stereo not given)"
  Group Label: "label 0"
- Molecule: "CC(=O)OC1C=CCC2C(=O)C3=C(C(=O)c4ccccc4C3=O)C(=O)C12 (stereo not given)"
  Group Label: "label 1"
- Molecule: "SC1CCCN(Cc2ccccc2)C1 (stereo not given)"
  Group Label: "label 0"
